Test system: B16-F10
Assay: Potency index, ratio of maslinic acid IC50 to compound IC50 for growth inhibition of mouse B16F10 cells
Assay type: functional
Assay Endpoint: Ratio IC50

Structure	Value Reported
COCCOCCOCC(=O)NCCCCCCCCCCNC(=O)[C@]12CCC(C)(C)C[C@H]1C1=CC[C@@H]3[C@@]4(C)C[C@@H](O)[C@H](O)C(C)(C)[C@@H]4CC[C@@]3(C)[C@]1(C)CC2	3
CC1(C)CC[C@]2(C(=O)NCCCCCCCCCCN)CC[C@]3(C)C(=CC[C@@H]4[C@@]5(C)C[C@@H](O)[C@H](O)C(C)(C)[C@@H]5CC[C@]43C)[C@@H]2C1	20.6
CC1(C)CC[C@]2(C(=O)NCCCN)CC[C@]3(C)C(=CC[C@@H]4[C@@]5(C)C[C@@H](O)[C@H](O)C(C)(C)[C@@H]5CC[C@]43C)[C@@H]2C1	23.2
COCCOCCOCC(=O)NCCCCCCNC(=O)[C@]12CCC(C)(C)C[C@H]1C1=CC[C@@H]3[C@@]4(C)C[C@@H](O)[C@H](O)C(C)(C)[C@@H]4CC[C@@]3(C)[C@]1(C)CC2	1.8
CC1(C)CC[C@]2(C(=O)NCCCCCCN)CC[C@]3(C)C(=CC[C@@H]4[C@@]5(C)C[C@@H](O)[C@H](O)C(C)(C)[C@@H]5CC[C@]43C)[C@@H]2C1	5.8

* * *

Tested on: B16-F10
Experiment: Induction of apoptosis in mouse B16F10 cells assessed as early apoptotic cells at antiproliferative IC50 after 48 hrs by Annexin V-FITC/propidium iodide staining based flow cytometry (reference value: 0.05 +/- 0.7%)
Type: functional

Structure	Activity / %
CC1(C)CC[C@]2(C(=O)NCCCN)CC[C@]3(C)C(=CC[C@@H]4[C@@]5(C)CC[C@H](O)C(C)(C)[C@@H]5CC[C@]43C)[C@@H]2C1	24.8
COCCOCCOCC(=O)NCCCNC(=O)[C@]12CCC(C)(C)C[C@H]1C1=CC[C@@H]3[C@@]4(C)C[C@@H](O)[C@H](O)C(C)(C)[C@@H]4CC[C@@]3(C)[C@]1(C)CC2	4.55
CC1(C)CC[C@]2(C(=O)NCCCCCCCCCCN)CC[C@]3(C)C(=CC[C@@H]4[C@@]5(C)C[C@@H](O)[C@H](O)C(C)(C)[C@@H]5CC[C@]43C)[C@@H]2C1	18.9
COCCOCCOCC(=O)NCCCCCCCCCCNC(=O)[C@]12CCC(C)(C)C[C@H]1C1=CC[C@@H]3[C@@]4(C)CC[C@H](O)C(C)(C)[C@@H]4CC[C@@]3(C)[C@]1(C)CC2	26.75
COCCOCCOCC(=O)NCCCNC(=O)[C@]12CCC(C)(C)C[C@H]1C1=CC[C@@H]3[C@@]4(C)CC[C@H](O)C(C)(C)[C@@H]4CC[C@@]3(C)[C@]1(C)CC2	3.75

* * *

System: HepG2
Experiment: Potency index, ratio of oleanolic acid IC50 to compound IC50 for growth inhibition of human HepG2 cells
Format: functional
Assay Endpoint: Ratio IC50

Structure	Value Reported
COCCOCCOCC(=O)NCCCNC(=O)[C@]12CCC(C)(C)C[C@H]1C1=CC[C@@H]3[C@@]4(C)CC[C@H](O)C(C)(C)[C@@H]4CC[C@@]3(C)[C@]1(C)CC2	1.8
COCCOCCOCC(=O)NCCCCCCNC(=O)[C@]12CCC(C)(C)C[C@H]1C1=CC[C@@H]3[C@@]4(C)CC[C@H](O)C(C)(C)[C@@H]4CC[C@@]3(C)[C@]1(C)CC2	11
CC1(C)CC[C@]2(C(=O)NCCCCCCCCCCNC(=O)[C@]34CCC(C)(C)C[C@H]3C3=CC[C@@H]5[C@@]6(C)CC[C@H](O)C(C)(C)[C@@H]6CC[C@@]5(C)[C@]3(C)CC4)CC[C@]3(C)C(=CC[C@@H]4[C@@]5(C)CC[C@H](O)C(C)(C)[C@@H]5CC[C@]43C)[C@@H]2C1	1.6
CC1(C)CC[C@]2(C(=O)NCCCNC(=O)[C@]34CCC(C)(C)C[C@H]3C3=CC[C@@H]5[C@@]6(C)CC[C@H](O)C(C)(C)[C@@H]6CC[C@@]5(C)[C@]3(C)CC4)CC[C@]3(C)C(=CC[C@@H]4[C@@]5(C)CC[C@H](O)C(C)(C)[C@@H]5CC[C@]43C)[C@@H]2C1	4
CC1(C)CC[C@]2(C(=O)NCCCCCCN)CC[C@]3(C)C(=CC[C@@H]4[C@@]5(C)CC[C@H](O)C(C)(C)[C@@H]5CC[C@]43C)[C@@H]2C1	46.5
CC1(C)CC[C@]2(C(=O)NCCCCCCNC(=O)[C@]34CCC(C)(C)C[C@H]3C3=CC[C@@H]5[C@@]6(C)CC[C@H](O)C(C)(C)[C@@H]6CC[C@@]5(C)[C@]3(C)CC4)CC[C@]3(C)C(=CC[C@@H]4[C@@]5(C)CC[C@H](O)C(C)(C)[C@@H]5CC[C@]43C)[C@@H]2C1	2
CC1(C)CC[C@]2(C(=O)NCCCN)CC[C@]3(C)C(=CC[C@@H]4[C@@]5(C)CC[C@H](O)C(C)(C)[C@@H]5CC[C@]43C)[C@@H]2C1	44.6
CC1(C)CC[C@]2(C(=O)NCCCCCCCCCCN)CC[C@]3(C)C(=CC[C@@H]4[C@@]5(C)CC[C@H](O)C(C)(C)[C@@H]5CC[C@]43C)[C@@H]2C1	36.2
COCCOCCOCC(=O)NCCCCCCCCCCNC(=O)[C@]12CCC(C)(C)C[C@H]1C1=CC[C@@H]3[C@@]4(C)CC[C@H](O)C(C)(C)[C@@H]4CC[C@@]3(C)[C@]1(C)CC2	16.3

* * *

Assay: Cytotoxicity against human WRL68 cells assessed as cell viability at antiproliferative IC50 of human HepG2 cells after 72 hrs by MTT assay relative to control
Assay type: cell-based
Details: read-out: Activity
Assay Endpoint: viability at 72 h (%)

Structure	Rel	Value Reported
COCCOCCOCC(=O)NCCCCCCNC(=O)[C@]12CCC(C)(C)C[C@H]1C1=CC[C@@H]3[C@@]4(C)C[C@@H](O)[C@H](O)C(C)(C)[C@@H]4CC[C@@]3(C)[C@]1(C)CC2	=	85.8
COCCOCCOCC(=O)NCCCNC(=O)[C@]12CCC(C)(C)C[C@H]1C1=CC[C@@H]3[C@@]4(C)CC[C@H](O)C(C)(C)[C@@H]4CC[C@@]3(C)[C@]1(C)CC2	<	50
CC1(C)CC[C@]2(C(=O)NCCCN)CC[C@]3(C)C(=CC[C@@H]4[C@@]5(C)C[C@@H](O)[C@H](O)C(C)(C)[C@@H]5CC[C@]43C)[C@@H]2C1	=	55.1
COCCOCCOCC(=O)NCCCNC(=O)[C@]12CCC(C)(C)C[C@H]1C1=CC[C@@H]3[C@@]4(C)C[C@@H](O)[C@H](O)C(C)(C)[C@@H]4CC[C@@]3(C)[C@]1(C)CC2	=	92.7

* * *

Assay: Cytotoxicity against human pulmonary fibroblasts assessed as cell viability at antiproliferative IC50 of mouse B16F10 cells after 72 hrs by MTT assay relative to control
Format: cell-based
Details: read-out: Activity
Checkbox rule: viability at 72 h lower than 70% = true; viability at 72 h not lower than 70% = false.

Structure	Class Label
COCCOCCOCC(=O)NCCCCCCCCCCNC(=O)[C@]12CCC(C)(C)C[C@H]1C1=CC[C@@H]3[C@@]4(C)C[C@@H](O)[C@H](O)C(C)(C)[C@@H]4CC[C@@]3(C)[C@]1(C)CC2	false
COCCOCCOCC(=O)NCCCCCCNC(=O)[C@]12CCC(C)(C)C[C@H]1C1=CC[C@@H]3[C@@]4(C)CC[C@H](O)C(C)(C)[C@@H]4CC[C@@]3(C)[C@]1(C)CC2	true
CC1(C)CC[C@]2(C(=O)NCCCN)CC[C@]3(C)C(=CC[C@@H]4[C@@]5(C)C[C@@H](O)[C@H](O)C(C)(C)[C@@H]5CC[C@]43C)[C@@H]2C1	false
CC1(C)CC[C@]2(C(=O)NCCCCCCCCCCN)CC[C@]3(C)C(=CC[C@@H]4[C@@]5(C)C[C@@H](O)[C@H](O)C(C)(C)[C@@H]5CC[C@]43C)[C@@H]2C1	false

* * *

System: B16-F10
Assay: Growth inhibition of mouse B16F10 cells after 72 hrs by MTT assay
Format: functional, cell-based

Structure	growth inhibition (GI)
CC1(C)CC[C@]2(C(=O)NCCCCCCCCCCN)CC[C@]3(C)C(=CC[C@@H]4[C@@]5(C)CC[C@H](O)C(C)(C)[C@@H]5CC[C@]43C)[C@@H]2C1	Dose-dependent effect
COCCOCCOCC(=O)NCCCCCCCCCCNC(=O)[C@]12CCC(C)(C)C[C@H]1C1=CC[C@@H]3[C@@]4(C)CC[C@H](O)C(C)(C)[C@@H]4CC[C@@]3(C)[C@]1(C)CC2	Dose-dependent effect
COCCOCCOCC(=O)NCCCNC(=O)[C@]12CCC(C)(C)C[C@H]1C1=CC[C@@H]3[C@@]4(C)C[C@@H](O)[C@H](O)C(C)(C)[C@@H]4CC[C@@]3(C)[C@]1(C)CC2	Dose-dependent effect
